Test: ATG_RORE_CIS: Attagene CIS-FACTORIAL HepG2 Assay for human RAR-related Orphan Receptor Element (RORE) (AID 2282959)
Conditions: HepG2 Attagene cis-factorial RORE reporter, mRNA; actives raise or lower the signal
Calls of active or inactive are those of the source. Rule for the calls: active = hit-call score of the fitted dose curve at least 0.9, where 1 is the maximum; inactive = score below 0.9.
// classify into true = active, false = inactive

Fill in: this test's call for CC(=O)OC/C=C(\C)CCC=C(C)C is ___ false

Fill in: this test's call for Cc1ccc2ncccc2c1 is ___ false

Fill in: this test's call for Cc1c(C(=O)O)c(O)cc2c1C(=O)c1c(O)c([C@@H]3O[C@H](CO)[C@@H](O)[C@H](O)[C@H]3O)c(O)c(O)c1C2=O is ___ false

Fill in: this test's call for O=C(N[C@@H](Cc1ccccc1)[C@@H](O)C(=O)N1C[C@@H](O)[C@@H](O)C1)c1cc2cc(Cl)ccc2[nH]1 is ___ false

Fill in: this test's call for COc1ccc(S(=O)(=O)N2C(=O)[C@@](c3ccccc3OC)(N3C[C@H](O)C[C@H]3C(=O)N(C)C)c3cc(Cl)ccc32)c(OC)c1 is ___ true

Fill in: this test's call for C=CCOC(=O)c1ccccc1C(=O)OCC=C is ___ false

Fill in: this test's call for Cc1cc(=O)[nH]c(=S)[nH]1 is ___ false

Fill in: this test's call for Cc1ccc(Cl)cc1 is ___ false

Fill in: this test's call for CC(=O)C(C)=CC1C(C)=CCCC1(C)C (stereo unspecified) is ___ false

Fill in: this test's call for COc1cc(C=O)ccc1O is ___ false

Fill in: this test's call for CN1CCCC1=O is ___ false

Fill in: this test's call for Cc1cc(NC(=O)C(=O)O)cc(C)c1Oc1ccc(O)c2c1CCC2 is ___ false

Fill in: this test's call for c1cc(-c2ccncc2)ccn1 is ___ false

Fill in: this test's call for CCCCN(CCCC)CCCC is ___ false

Fill in: this test's call for Cc1cccc(Nc2cc(Cl)nc(SCC(=O)O)n2)c1C is ___ false

Fill in: this test's call for Cc1ccc(C)c(C)c1 is ___ false

Fill in: this test's call for CNC(=O)[C@H]1O[C@@H](n2cnc3c(NCc4cc(Cl)ccc4OCc4cc(C)no4)ncnc32)[C@H](O)[C@@H]1N is ___ false

---

Read-out: Keratin 19 (KRT19), KRT19 (gene 3880)
Test: LTEA_HepaRG_KRT19: Life Technologies and Expression Analysis (LTEA) Assay for Keratin 19 (KRT19) using HepaRG (AID 2283512)
Details: mRNA level, 48 h; actives raise or lower the signal
Calls of active or inactive are those of the source. The calls were made as follows: active = hit-call score of the fitted dose curve at least 0.9, where 1 is the maximum; inactive = score below 0.9.
assay_readout: AC50

Here are 8 compounds together with their reported answers.
# compound, AC50
data = [
    ("CCCCC(CC)COC(=O)CC(C(=O)OCC(CC)CCCC)S(=O)(=O)O (stereo unspecified)", "inactive"),
    ("CNCc1cc(F)ccc1Oc1ccc(Cl)c(Cl)c1", "inactive"),
    ("CCCCCCCCCCCCCCCCCC(=O)O", "inactive"),
    ("CC1(C)CC(N=C=O)CC(C)(CN=C=O)C1 (stereo unspecified)", "inactive"),
    ("Oc1ccc2c(c1)OC[C@@H](N1CCC(O)(c3ccc(F)cc3)CC1)[C@H]2O", "inactive"),
    ("Nc1ccccc1N", "3.62 µM (active)"),
    ("CC1(C)NC(=O)NC1=O", "inactive"),
    ("CNC(=O)[C@H]1O[C@@H](n2cnc3c(NCc4cc(Cl)ccc4OCc4cc(C)no4)ncnc32)[C@H](O)[C@@H]1N", "inactive"),
]

Reported AC50 for CN[C@H]1CC[C@@H](c2ccc(Cl)c(Cl)c2)c2ccc(S(N)(=O)=O)cc21 was 10.9 µM (active)

Reported AC50 for CCCCCCCCCCO was inactive

Reported AC50 for O=C(N[C@@H](Cc1ccccc1)[C@@H](O)C(=O)N1C[C@@H](O)[C@@H](O)C1)c1cc2cc(Cl)ccc2[nH]1 was inactive
